- Test Target: Renin (Rattus norvegicus)
- Sequence (P08424 whole entry): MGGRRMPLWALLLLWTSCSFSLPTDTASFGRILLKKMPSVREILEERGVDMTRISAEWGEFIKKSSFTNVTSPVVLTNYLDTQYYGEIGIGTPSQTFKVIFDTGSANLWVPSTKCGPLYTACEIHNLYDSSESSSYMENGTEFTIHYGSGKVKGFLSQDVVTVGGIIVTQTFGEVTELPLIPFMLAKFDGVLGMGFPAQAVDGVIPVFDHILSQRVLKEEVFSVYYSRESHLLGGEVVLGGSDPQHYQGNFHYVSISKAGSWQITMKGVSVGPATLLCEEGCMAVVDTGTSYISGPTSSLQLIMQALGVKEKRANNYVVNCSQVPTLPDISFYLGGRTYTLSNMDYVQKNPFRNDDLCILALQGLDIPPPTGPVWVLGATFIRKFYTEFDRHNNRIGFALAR
- Protocol: Inhibitory activity against rat plasma renin in vitro.
pIC50: −log10 of the molar value. Where a SMILES comes first, the peptide text is derived from it. [ ]: non-standard residue; d: D form. Sta = CC(C)C[C@H](N)[C@@H](O)CC(=O)O
Reported pIC50 values are given for each entry in this list.

{"Compound": "CC(=O)N[C@@H](Cc1cnc[nH]1)C(=O)N1CCC[C@H]1C(=O)N[C@@H](Cc1ccccc1)C(=O)N[C@@H](Cc1cnc[nH]1)C(=O)N[C@@H](CC(C)C)[C@@H](O)CC(=O)N[C@@H](CC(C)C)C(=O)N[C@H](C(N)=O)C(C)C (Ac-HPFH[Sta]LV-NH2)", "pIC50": 6.57}
{"Compound": "CC(=O)N[C@@H](Cc1cnc[nH]1)C(=O)N1CCC[C@H]1C(=O)N[C@@H](Cc1ccccc1)C(=O)N[C@@H](Cc1cnc[nH]1)C(=O)N[C@@H](CC1CCCCC1)[C@@H](O)CC(=O)N[C@@H](CC(C)C)C(=O)N[C@@H](Cc1ccccc1)C(N)=O", "pIC50": 7.30}

###

Reported IC50 values are given for each entry in this list.
- Test Target: Renin (Rattus norvegicus)
- Sequence (P08424 whole entry): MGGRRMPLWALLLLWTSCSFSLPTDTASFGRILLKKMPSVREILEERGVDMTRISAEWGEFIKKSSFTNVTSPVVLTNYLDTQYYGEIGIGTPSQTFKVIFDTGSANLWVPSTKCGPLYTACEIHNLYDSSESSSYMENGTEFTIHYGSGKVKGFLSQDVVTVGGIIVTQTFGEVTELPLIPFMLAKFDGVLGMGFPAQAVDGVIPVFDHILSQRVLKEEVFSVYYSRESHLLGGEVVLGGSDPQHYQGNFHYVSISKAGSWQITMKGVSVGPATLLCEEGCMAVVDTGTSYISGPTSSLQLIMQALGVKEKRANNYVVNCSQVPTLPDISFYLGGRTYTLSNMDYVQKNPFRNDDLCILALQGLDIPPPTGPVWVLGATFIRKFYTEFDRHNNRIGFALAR
- Protocol: Inhibitory activity against rat plasma renin in vitro.
*1 amine or outer side, *2 acyl side, *3 side chain or, on linkers, in order; H or OH if unused. Where a SMILES comes first, the peptide text is derived from it. [ ]: non-standard residue; d: D form. Ahppa(3S,4S) = O=C(C[C@H](O)[C@H](Cc1ccccc1)N[*:1])[*:2]; Sta = CC(C)C[C@H](N)[C@@H](O)CC(=O)O; Cha = N[C@@H](CC1CCCCC1)C(=O)O; Tle = CC(C)(C)[C@H](N)C(=O)O

{"Molecule": "CC[C@H](C)[C@H](NC(=O)C[C@H](O)[C@H](CC(C)C)NC(=O)[C@H](Cc1c[nH]cn1)NC(=O)[C@H](Cc1ccccc1)NC(=O)[C@@H]1CCCN1C(=O)[C@H](Cc1c[nH]cn1)NC(=O)[C@@H]1CCCN1)C(=O)N[C@@H](Cc1ccccc1)C(N)=O (H-PHPFH[Sta]IF-NH2)", "IC50 / µM": 10}
{"Molecule": "CC(=O)N[C@@H](Cc1cnc[nH]1)C(=O)N1CCC[C@H]1C(=O)N[C@@H](CC1CCCCC1)C(=O)N[C@@H](Cc1cnc[nH]1)C(=O)N[C@@H](CC(C)C)[C@@H](O)CC(=O)N[C@@H](CC(C)C)C(=O)N[C@@H](Cc1ccccc1)C(N)=O (Ac-HP[Cha]H[Sta]LF-NH2)", "IC50 / µM": 0.65}
{"Molecule": "CC(C)C[C@H](NC(=O)[C@H](Cc1cnc[nH]1)NC(=O)[C@H](Cc1ccccc1)NC(=O)[C@@H]1CCCN1C(=O)[C@H](Cc1cnc[nH]1)NC(=O)[C@@H]1CCCN1)[C@@H](O)CC(=O)N[C@@H](Cc1ccc(O)cc1)C(=O)N[C@@H](Cc1ccc(O)cc1)C(=O)N[C@@H](CCCCN)C(N)=O (H-PHPFH[Sta]YYK-NH2)", "IC50 / µM": 35}
{"Molecule": "CC(=O)N[C@@H](Cc1cnc[nH]1)C(=O)N1CCC[C@H]1C(=O)N[C@@H](Cc1ccccc1)C(=O)N[C@@H](Cc1cnc[nH]1)C(=O)N[C@@H](Cc1ccccc1)[C@@H](O)CC(=O)N[C@@H](CC(C)C)C(=O)N[C@@H](Cc1ccccc1)C(N)=O (Ac-HPFH[Ahppa(3S,4S)]LF-NH2)", "IC50 / µM": 0.15}
{"Molecule": "CC(=O)N[C@@H](Cc1cnc[nH]1)C(=O)N1CCC[C@H]1C(=O)N[C@@H](Cc1ccccc1)C(=O)N[C@@H](Cc1cnc[nH]1)C(=O)N[C@@H](CC(C)C)[C@@H](O)CC(=O)N[C@H](C(=O)N[C@@H](Cc1ccccc1)C(N)=O)C(C)(C)C (Ac-HPFH[Sta][Tle]F-NH2)", "IC50 / µM": 1.9}
{"Molecule": "CC(=O)N[C@@H](Cc1c[nH]cn1)C(=O)N1CCC[C@H]1C(=O)N[C@@H](Cc1ccccc1)C(=O)N[C@@H](Cc1c[nH]cn1)C(=O)N[C@@H](CC(C)C)[C@@H](O)CC(=O)N[C@@H](CC(C)C)C(=O)N[C@@H](CC1CCCCC1)C(N)=O (Ac-HPFH[Sta]L[Cha]-NH2)", "IC50 / µM": 0.16}
